Quick reference for switch fluorescence ratio among some sequences
Tested on: ATP;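 also: ATP exposure 15 min at 22 °C before imaging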
ASSAY COMMENT: switch fluorescence ratio, 500 uM ATP over buffer (Cy3 cluster intensity, sum of 5 cycles each) (fold (ratio)); higher = stronger signal-on switching upon ATP binding; sequences stand for … in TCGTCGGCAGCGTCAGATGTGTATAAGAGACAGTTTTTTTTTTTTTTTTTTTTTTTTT…TC
CONDITION PARAMETERS: aptamer strand: ATP DNA aptamer (quencher-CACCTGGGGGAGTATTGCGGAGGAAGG + anchor), 100 nM annealed; ATP concentration: 500 uM

// worked examples, switch fluorescence ratio included
> print(dat)
   monomer.sequence              endpoint.name  observed.value
1        TGTTTATTGA  switch fluorescence ratio           0.989
2        TTCTACTAGT  switch fluorescence ratio            0.98
3        TTCATTTTTT  switch fluorescence ratio            1.02
4        TAGAGCACGG  switch fluorescence ratio            1.02

Request: // fetch switch fluorescence ratio for TAATTTTTTT ; system: ATP;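 also: ATP exposure 15 min at 22 °C before imaging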
Result: 1.01

Request: // fetch switch fluorescence ratio for ACAGGAAAAA ; system: ATP;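 also: ATP exposure 15 min at 22 °C before imaging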
Result: 0.976

* * *

Test system: ATP;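 also: ATP exposure 15 min at 22 °C before imaging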
ASSAY COMMENT: switch fluorescence ratio, 500 uM ATP over buffer (Cy3 cluster intensity, sum of 5 cycles each) (fold (ratio)); higher = stronger signal-on switching upon ATP binding; sequences stand for … in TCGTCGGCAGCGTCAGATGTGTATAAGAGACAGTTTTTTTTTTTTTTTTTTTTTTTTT…TC
CONDITION PARAMETERS: aptamer strand: ATP DNA aptamer (quencher-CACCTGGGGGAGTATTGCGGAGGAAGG + anchor), 100 nM annealed; ATP concentration: 500 uM
Quick reference for switch fluorescence ratio among some sequences
Answer with a bare number; do not write a unit.

// worked examples, switch fluorescence ratio included
> print(dat)
   monomer.sequence              endpoint.name  observed.value
1        TCGAGTGCGT  switch fluorescence ratio           0.978
2        CGAGTCTTTG  switch fluorescence ratio            1.03
3        TACGTGGTGG  switch fluorescence ratio            1.05
4        TTGTCTGTCC  switch fluorescence ratio            0.98
5        TTTTTATTGG  switch fluorescence ratio           0.985
6        CATTTATAAT  switch fluorescence ratio            1.03
7        GGGACTTTGG  switch fluorescence ratio           0.972
8        GATGGGAGGA  switch fluorescence ratio           0.964

Request: Input TTGAAAAATG , output reported switch fluorescence ratio.
Result: 1.03

Request: Input CACAATTTTT , output reported switch fluorescence ratio.
Result: 0.991

* * *

System: ATP;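 also: ATP exposure 15 min at 22 °C before imaging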
ASSAY COMMENT: switch fluorescence ratio, 500 uM ATP over buffer (Cy3 cluster intensity, sum of 5 cycles each) (fold (ratio)); higher = stronger signal-on switching upon ATP binding; sequences stand for … in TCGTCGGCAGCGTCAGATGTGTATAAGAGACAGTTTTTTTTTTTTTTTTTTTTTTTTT…TC
CONDITION PARAMETERS: aptamer strand: ATP DNA aptamer (quencher-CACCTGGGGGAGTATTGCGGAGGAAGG + anchor), 100 nM annealed; ATP concentration: 500 uM
Param threshold (1) applies to switch fluorescence ratio; output 1 when value >= threshold, 0 when value < threshold.

As a guide, the following entries are already answered.
> print(dat)
   monomer.sequence  classification
1        ATTATTGACT               1
2        ATCTGATCGA               0
3        GGAGACGGGA               1
4        TGTGGGATAT               1

Kindly consider the entry below.
Request: Assess whether reported switch fluorescence ratio for ACATGAACCT sits at 1 or higher.
Result: 1

Data provenance: the supplement of paper PMC10126150
